Catalogue of ABSOLUTE SEGMENTED NEUTROPHIL values
# Organism: Rattus norvegicus
# MEASUREMENT_PROTOCOL: DrugMatrix - Regimen: Daily Repeat
# Format: toxicity, organism-based, Sprague-Dawley
# Parameters: regimen Daily Repeat, gender Male, age 6-8 weeks
# DETAILS: in vivo, po, 0 mg/kg, 72 h, tissue Blood, route oral GAVAGE, dose level Control, time 3 day, vehicle 100 % WATER

// solved cases for ABSOLUTE SEGMENTED NEUTROPHIL follow
COMPOUND | ABSOLUTE SEGMENTED NEUTROPHIL
CN1CCC[C@H]1c1cccnc1 | 1008.5 CELLS/uL
NC(=O)c1ncn([C@@H]2O[C@H](CO)[C@@H](O)[C@H]2O)n1 | 1021.17 CELLS/uL

We now examine a further compound.
The reported ABSOLUTE SEGMENTED NEUTROPHIL of the compound CC1COc2c(N3CCN(C)CC3)c(F)cc3c(=O)c(C(=O)O)cn1c23 (stereo not drawn) was 1008.5 CELLS/uL
